System: SK-MEL-5 melanoma
assay_remarks: NCI tumour cell line growth inhibition, 48 h
For each entry below, report its TGI value.

compound	endpoint	result_value
CC(C)(CCCCC(C)(C)NC1=NCCO1)NC1=NCCO1	TGI	> 10 µM
COC(=O)C(=O)C(C(=O)C(=O)Nc1cccc(OC)c1)c1nc2ccc(Cl)cc2[nH]c1=O (centres undefined)	TGI	> 100 µM

Hey, can you go through the list below and give me TGI for every item?
1. Nc1ccccc1C(=O)/C=C/c1ccccc1O
2. CCC12C=C(C(=O)OC)N3c4ccccc4C4CCN(CCC1)C2C43 (centres undefined)
3. CCCCCC(=O)OC[n+]1cccc(-c2c(COC(=O)NC(C)C)c(COC(=O)NC(C)C)c3n2CCC3)c1
4. C/C(=C\c1csc(C)n1)[C@@H]1C[C@@H]2O[C@]2(C)CCC[C@H](C)[C@H](O)[C@@H](C)C(=O)C(C)(C)[C@@H](O)CC(=O)N1

> 100 µM
> 100 µM
> 100 µM
0.000337 µM

Reference source: PubChem BioAssay (NCI)
